All values here come from paper PMC7036753.

Reported GM (geometric mean of the MIC values against S. aureus) is given for each of the following compounds.
Tested on: reference strains of S. aureus
Assay type: cell-based, Staphylococcus aureus
recordedConditions: reference strains of, 24 h
Peptide text beside a SMILES is read from it. * marks the point of attachment. Decanoyl = CCCCCCCCCC(=O)*; Octanoyl = CCCCCCCC(=O)*; X1 = O=C(/C=C/c1ccccc1)*; Butyryl = CCCC(=O)*
metricName: GM (geometric mean of the MIC values against S. aureus) (µg/mL)

{"compound": "CCCCCCCC(=O)N[C@@H](CCCCN)C(=O)N[C@@H](CCCNC(=N)N)C(=O)N[C@H](C(=O)N[C@H](C(=O)N[C@@H](CCC(N)=O)C(=O)N[C@@H](CCCNC(=N)N)C(=O)N[C@H](C(=O)N[C@@H](CCCCN)C(=O)N[C@@H](CC(=O)O)C(=O)N[C@@H](Cc1ccccc1)C(=O)N[C@@H](CC(C)C)C(=O)N[C@@H](CCCNC(=N)N)C(N)=O)[C@@H](C)CC)C(C)C)[C@@H](C)CC [IV, C8-KR12-NH2] (Octanoyl-KRIVQRIKDFLR-NH2)", "measurementUnit": "µg/mL", "valueReported": 2.30}
{"compound": "CC[C@H](C)[C@H](NC(=O)[C@H](CCCNC(=N)N)NC(=O)[C@H](CCC(N)=O)NC(=O)[C@@H](NC(=O)[C@@H](NC(=O)[C@H](CCCNC(=N)N)NC(=O)[C@H](CCCCN)NC(=O)/C=C/c1ccccc1)[C@@H](C)CC)C(C)C)C(=O)N[C@@H](CCCCN)C(=O)N[C@@H](CC(=O)O)C(=O)N[C@@H](Cc1ccccc1)C(=O)N[C@@H](CC(C)C)C(=O)N[C@@H](CCCNC(=N)N)C(N)=O [IX, trans-Cinnamic acid-KR12-NH2] (X1-KRIVQRIKDFLR-NH2)", "measurementUnit": "µg/mL", "valueReported": 4.00}
{"compound": "CCCC(=O)N[C@@H](CCCCN)C(=O)N[C@@H](CCCNC(=N)N)C(=O)N[C@H](C(=O)N[C@H](C(=O)N[C@@H](CCC(N)=O)C(=O)N[C@@H](CCCNC(=N)N)C(=O)N[C@H](C(=O)N[C@@H](CCCCN)C(=O)N[C@@H](CC(=O)O)C(=O)N[C@@H](Cc1ccccc1)C(=O)N[C@@H](CC(C)C)C(=O)N[C@@H](CCCNC(=N)N)C(N)=O)[C@@H](C)CC)C(C)C)[C@@H](C)CC [II, C4-KR12-NH2] (Butyryl-KRIVQRIKDFLR-NH2)", "measurementUnit": "µg/mL", "valueReported": 73.52}
{"compound": "CCCCCCCCCC(=O)N[C@@H](CCCCN)C(=O)N[C@@H](CCCNC(=N)N)C(=O)N[C@H](C(=O)N[C@H](C(=O)N[C@@H](CCC(N)=O)C(=O)N[C@@H](CCCNC(=N)N)C(=O)N[C@H](C(=O)N[C@@H](CCCCN)C(=O)N[C@@H](CC(=O)O)C(=O)N[C@@H](Cc1ccccc1)C(=O)N[C@@H](CC(C)C)C(=O)N[C@@H](CCCNC(=N)N)C(N)=O)[C@@H](C)CC)C(C)C)[C@@H](C)CC [V, C10-KR12-NH2] (Decanoyl-KRIVQRIKDFLR-NH2)", "measurementUnit": "µg/mL", "valueReported": 4.00}

* * *

Test system: P. aeruginosa ATCC 9027
Format: cell-based, Pseudomonas aeruginosa
recordedConditions: ATCC 9027, 18 h
Peptide text beside a SMILES is read from it. * marks the point of attachment. Myristoyl = CCCCCCCCCCCCCC(=O)*; Lauroyl = CCCCCCCCCCCC(=O)*
metricName: MIC (µg/mL)

{"compound": "CCCCCCCCCCCC(=O)N[C@@H](CCCCN)C(=O)N[C@@H](CCCNC(=N)N)C(=O)N[C@H](C(=O)N[C@H](C(=O)N[C@@H](CCC(N)=O)C(=O)N[C@@H](CCCNC(=N)N)C(=O)N[C@H](C(=O)N[C@@H](CCCCN)C(=O)N[C@@H](CC(=O)O)C(=O)N[C@@H](Cc1ccccc1)C(=O)N[C@@H](CC(C)C)C(=O)N[C@@H](CCCNC(=N)N)C(N)=O)[C@@H](C)CC)C(C)C)[C@@H](C)CC [VI, C12-KR12-NH2] (Lauroyl-KRIVQRIKDFLR-NH2)", "measurementUnit": "µg/mL", "valueReported": 32}
{"compound": "CCCCCCCCCCCCCC(=O)N[C@@H](CCCCN)C(=O)N[C@@H](CCCNC(=N)N)C(=O)N[C@H](C(=O)N[C@H](C(=O)N[C@@H](CCC(N)=O)C(=O)N[C@@H](CCCNC(=N)N)C(=O)N[C@H](C(=O)N[C@@H](CCCCN)C(=O)N[C@@H](CC(=O)O)C(=O)N[C@@H](Cc1ccccc1)C(=O)N[C@@H](CC(C)C)C(=O)N[C@@H](CCCNC(=N)N)C(N)=O)[C@@H](C)CC)C(C)C)[C@@H](C)CC [VII, C14-KR12-NH2] (Myristoyl-KRIVQRIKDFLR-NH2)", "measurementUnit": "µg/mL", "valueReported": 128}

* * *

Test system: E. faecium ATCC 700221
Format: cell-based, Enterococcus faecium
recordedConditions: ATCC 700221, 18 h
Peptide text beside a SMILES is read from it. * marks the point of attachment. Decanoyl = CCCCCCCCCC(=O)*

{"compound": "CCCCCCCCCC(=O)N[C@@H](CCCCN)C(=O)N[C@@H](CCCNC(=N)N)C(=O)N[C@H](C(=O)N[C@H](C(=O)N[C@@H](CCC(N)=O)C(=O)N[C@@H](CCCNC(=N)N)C(=O)N[C@H](C(=O)N[C@@H](CCCCN)C(=O)N[C@@H](CC(=O)O)C(=O)N[C@@H](Cc1ccccc1)C(=O)N[C@@H](CC(C)C)C(=O)N[C@@H](CCCNC(=N)N)C(N)=O)[C@@H](C)CC)C(C)C)[C@@H](C)CC [V, C10-KR12-NH2] (Decanoyl-KRIVQRIKDFLR-NH2)", "subjectOfTest": "E. faecium ATCC 700221", "MIC": "2 µg/mL"}

* * *

Recorded MBEC for the following compounds
Tested on: S. aureus ATCC 25923 biofilm
Type: cell-based, Staphylococcus aureus
recordedConditions: ATCC 25923, 24 h
Experimental: The MBECs values were determined according to the method reported previously. […] After 1 h of incubation, the MBECs were read out. The determined values were recorded as the lowest concentration at which the reduction of resazurin (from blue to pink) was lower or equal to 10 ± 0.5% as compared to the positive (100%) and negative (0%) controls. […]
Peptide text beside a SMILES is read from it. * marks the point of attachment. Lauroyl = CCCCCCCCCCCC(=O)*; Decanoyl = CCCCCCCCCC(=O)*; Octanoyl = CCCCCCCC(=O)*; X1 = O=C(/C=C/c1ccccc1)*; Butyryl = CCCC(=O)*

{"compound": "CCCCCCCCCC(=O)N[C@@H](CCCCN)C(=O)N[C@@H](CCCNC(=N)N)C(=O)N[C@H](C(=O)N[C@H](C(=O)N[C@@H](CCC(N)=O)C(=O)N[C@@H](CCCNC(=N)N)C(=O)N[C@H](C(=O)N[C@@H](CCCCN)C(=O)N[C@@H](CC(=O)O)C(=O)N[C@@H](Cc1ccccc1)C(=O)N[C@@H](CC(C)C)C(=O)N[C@@H](CCCNC(=N)N)C(N)=O)[C@@H](C)CC)C(C)C)[C@@H](C)CC [V, C10-KR12-NH2] (Decanoyl-KRIVQRIKDFLR-NH2)", "subjectOfTest": "S. aureus ATCC 25923 biofilm", "MBEC, µg/mL": 32}
{"compound": "CC[C@H](C)[C@H](NC(=O)[C@H](CCCNC(=N)N)NC(=O)[C@H](CCC(N)=O)NC(=O)[C@@H](NC(=O)[C@@H](NC(=O)[C@H](CCCNC(=N)N)NC(=O)[C@H](CCCCN)NC(=O)/C=C/c1ccccc1)[C@@H](C)CC)C(C)C)C(=O)N[C@@H](CCCCN)C(=O)N[C@@H](CC(=O)O)C(=O)N[C@@H](Cc1ccccc1)C(=O)N[C@@H](CC(C)C)C(=O)N[C@@H](CCCNC(=N)N)C(N)=O [IX, trans-Cinnamic acid-KR12-NH2] (X1-KRIVQRIKDFLR-NH2)", "subjectOfTest": "S. aureus ATCC 25923 biofilm", "MBEC, µg/mL": 32}
{"compound": "CCCC(=O)N[C@@H](CCCCN)C(=O)N[C@@H](CCCNC(=N)N)C(=O)N[C@H](C(=O)N[C@H](C(=O)N[C@@H](CCC(N)=O)C(=O)N[C@@H](CCCNC(=N)N)C(=O)N[C@H](C(=O)N[C@@H](CCCCN)C(=O)N[C@@H](CC(=O)O)C(=O)N[C@@H](Cc1ccccc1)C(=O)N[C@@H](CC(C)C)C(=O)N[C@@H](CCCNC(=N)N)C(N)=O)[C@@H](C)CC)C(C)C)[C@@H](C)CC [II, C4-KR12-NH2] (Butyryl-KRIVQRIKDFLR-NH2)", "subjectOfTest": "S. aureus ATCC 25923 biofilm", "MBEC, µg/mL": 256}
{"compound": "CCCCCCCC(=O)N[C@@H](CCCCN)C(=O)N[C@@H](CCCNC(=N)N)C(=O)N[C@H](C(=O)N[C@H](C(=O)N[C@@H](CCC(N)=O)C(=O)N[C@@H](CCCNC(=N)N)C(=O)N[C@H](C(=O)N[C@@H](CCCCN)C(=O)N[C@@H](CC(=O)O)C(=O)N[C@@H](Cc1ccccc1)C(=O)N[C@@H](CC(C)C)C(=O)N[C@@H](CCCNC(=N)N)C(N)=O)[C@@H](C)CC)C(C)C)[C@@H](C)CC [IV, C8-KR12-NH2] (Octanoyl-KRIVQRIKDFLR-NH2)", "subjectOfTest": "S. aureus ATCC 25923 biofilm", "MBEC, µg/mL": 8}
{"compound": "CCCCCCCCCCCC(=O)N[C@@H](CCCCN)C(=O)N[C@@H](CCCNC(=N)N)C(=O)N[C@H](C(=O)N[C@H](C(=O)N[C@@H](CCC(N)=O)C(=O)N[C@@H](CCCNC(=N)N)C(=O)N[C@H](C(=O)N[C@@H](CCCCN)C(=O)N[C@@H](CC(=O)O)C(=O)N[C@@H](Cc1ccccc1)C(=O)N[C@@H](CC(C)C)C(=O)N[C@@H](CCCNC(=N)N)C(N)=O)[C@@H](C)CC)C(C)C)[C@@H](C)CC [VI, C12-KR12-NH2] (Lauroyl-KRIVQRIKDFLR-NH2)", "subjectOfTest": "S. aureus ATCC 25923 biofilm", "MBEC, µg/mL": 256}
